meta.source: paper PMC3432483

SYSTEM_TESTED: VEGFR2 (Homo sapiens, UniProt P35968)
Sequence (P35968 20-1356): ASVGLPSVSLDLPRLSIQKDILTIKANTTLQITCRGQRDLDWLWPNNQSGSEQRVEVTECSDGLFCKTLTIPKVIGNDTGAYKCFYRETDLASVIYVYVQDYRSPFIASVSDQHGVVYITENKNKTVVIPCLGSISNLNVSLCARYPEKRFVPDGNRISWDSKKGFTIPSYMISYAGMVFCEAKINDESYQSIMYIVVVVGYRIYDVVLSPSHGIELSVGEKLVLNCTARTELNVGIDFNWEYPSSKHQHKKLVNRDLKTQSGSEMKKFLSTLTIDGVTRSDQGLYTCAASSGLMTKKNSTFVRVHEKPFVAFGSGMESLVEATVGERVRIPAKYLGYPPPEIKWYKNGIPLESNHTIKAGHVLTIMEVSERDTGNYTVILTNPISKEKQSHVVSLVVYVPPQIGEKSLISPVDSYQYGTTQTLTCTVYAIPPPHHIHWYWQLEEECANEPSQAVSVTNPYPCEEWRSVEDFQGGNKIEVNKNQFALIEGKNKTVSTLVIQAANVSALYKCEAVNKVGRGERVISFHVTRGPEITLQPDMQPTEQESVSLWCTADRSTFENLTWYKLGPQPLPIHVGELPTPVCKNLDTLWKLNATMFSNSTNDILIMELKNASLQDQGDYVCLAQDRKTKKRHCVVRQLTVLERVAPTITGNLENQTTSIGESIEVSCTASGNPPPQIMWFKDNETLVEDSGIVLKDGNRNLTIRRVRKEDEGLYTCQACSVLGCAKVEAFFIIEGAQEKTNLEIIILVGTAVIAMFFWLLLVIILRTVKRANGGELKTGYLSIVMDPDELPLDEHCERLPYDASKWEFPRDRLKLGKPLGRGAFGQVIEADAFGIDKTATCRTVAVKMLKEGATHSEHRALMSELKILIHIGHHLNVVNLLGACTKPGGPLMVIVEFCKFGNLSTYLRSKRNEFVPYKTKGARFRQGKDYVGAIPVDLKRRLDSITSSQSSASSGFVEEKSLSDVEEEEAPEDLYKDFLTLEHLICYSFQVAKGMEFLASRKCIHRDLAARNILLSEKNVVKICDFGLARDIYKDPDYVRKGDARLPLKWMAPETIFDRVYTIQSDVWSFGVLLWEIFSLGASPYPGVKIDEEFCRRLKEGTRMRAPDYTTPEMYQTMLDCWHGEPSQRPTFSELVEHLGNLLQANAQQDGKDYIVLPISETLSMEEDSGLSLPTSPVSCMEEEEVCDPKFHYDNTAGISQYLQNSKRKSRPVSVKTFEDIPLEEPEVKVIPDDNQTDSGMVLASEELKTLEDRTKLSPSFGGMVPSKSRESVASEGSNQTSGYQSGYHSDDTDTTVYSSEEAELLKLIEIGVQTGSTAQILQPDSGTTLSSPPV
METHOD_SUMMARY: Full dose-response kinase assay
Format: biochemical
pIC50: −log10 of the molar value.

{"SMILES": "Nc1ncc(-c2ccncc2)nc1Nc1ccc2[nH]ccc2c1", "pIC50": 6.28}

====

SYSTEM_TESTED: UniProt P21802
Sequence (P21802 22-821): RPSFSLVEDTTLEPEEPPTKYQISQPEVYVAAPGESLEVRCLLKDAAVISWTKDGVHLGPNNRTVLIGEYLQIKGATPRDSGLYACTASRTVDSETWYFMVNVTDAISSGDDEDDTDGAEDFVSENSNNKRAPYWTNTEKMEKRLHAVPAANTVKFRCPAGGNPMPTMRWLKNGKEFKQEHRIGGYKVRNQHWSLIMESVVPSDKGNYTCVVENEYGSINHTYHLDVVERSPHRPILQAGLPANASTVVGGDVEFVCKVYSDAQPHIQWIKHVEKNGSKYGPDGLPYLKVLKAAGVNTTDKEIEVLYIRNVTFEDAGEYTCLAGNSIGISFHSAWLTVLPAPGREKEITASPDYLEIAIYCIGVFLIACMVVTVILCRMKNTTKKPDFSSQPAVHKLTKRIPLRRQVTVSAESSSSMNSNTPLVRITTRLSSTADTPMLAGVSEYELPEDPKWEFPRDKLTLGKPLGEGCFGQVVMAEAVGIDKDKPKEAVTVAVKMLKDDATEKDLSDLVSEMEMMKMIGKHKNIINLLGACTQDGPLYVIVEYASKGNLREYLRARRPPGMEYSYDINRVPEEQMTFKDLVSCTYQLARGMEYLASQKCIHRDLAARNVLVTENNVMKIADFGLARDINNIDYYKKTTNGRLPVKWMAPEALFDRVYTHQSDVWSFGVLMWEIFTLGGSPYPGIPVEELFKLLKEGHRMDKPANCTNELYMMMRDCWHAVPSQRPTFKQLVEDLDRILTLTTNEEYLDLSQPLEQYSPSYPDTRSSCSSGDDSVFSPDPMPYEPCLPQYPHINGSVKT
pIC50: −log10 of the molar value.
ASSAY_ENDPOINT: pIC50

{"SMILES": "Nc1ncc(-c2ccncc2)nc1Nc1ccc2[nH]ccc2c1", "VALUE_OBSERVED": 5.92}
